biological target: Cytochrome P450 2C19 (Homo sapiens) (UniProt P33261); experiment: Cytochrome panel assay with activity outcomes; details: recombinant CYP, pro-luciferin dealkylation, luminescence, p450-cyp2c19; series mostly up to 57.1 µM
Sequence (P33261 whole entry, looked up): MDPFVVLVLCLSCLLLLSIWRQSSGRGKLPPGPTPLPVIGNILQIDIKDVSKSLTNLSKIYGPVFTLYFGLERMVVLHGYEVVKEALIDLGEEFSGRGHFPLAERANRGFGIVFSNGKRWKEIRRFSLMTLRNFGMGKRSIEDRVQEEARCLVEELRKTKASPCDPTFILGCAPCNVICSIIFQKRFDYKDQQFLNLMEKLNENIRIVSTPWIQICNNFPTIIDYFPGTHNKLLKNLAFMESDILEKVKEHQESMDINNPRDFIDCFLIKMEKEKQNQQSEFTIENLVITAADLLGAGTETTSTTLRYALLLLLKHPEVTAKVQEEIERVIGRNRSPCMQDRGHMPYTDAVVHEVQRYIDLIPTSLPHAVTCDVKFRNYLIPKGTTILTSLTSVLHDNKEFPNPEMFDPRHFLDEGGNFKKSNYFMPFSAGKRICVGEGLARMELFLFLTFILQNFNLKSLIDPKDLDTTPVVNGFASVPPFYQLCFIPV
The campaign covered roughly 16,000 compounds. About 5,800 (36%) were called active. Another 23% or so got no clear call; they are omitted. This is one part of the list.
Observable: AC50

Past entries and their recorded results:
Cc1oc(-c2ccccc2Cl)nc1CSCC(=O)NC1CC1
14.1 µM (active)
COc1cccc(C2=NOC(C(=O)Nc3cccnc3)C2)c1 (configuration not stated)
10 µM (active)
COc1ccc(CNc2cc(-c3ccccc3Cl)ncn2)c(OC)c1
2 µM (active)
COCCNC(=O)C1CC(c2cccc(OC)c2)=NO1 (configuration not stated)
inactive
COc1cccc(C2=NOC(C(=O)NCCN3CCOCC3)C2)c1 (configuration not stated)
inactive
Cc1oc(-c2ccccc2F)nc1CSCC(=O)NCc1ccc2c(c1)OCO2
1.78 µM (active)
COc1ccccc1-c1nccc(NCc2cccc(C)c2)n1
10 µM (active)
Cc1c2cccc(Sc3ccccc3)c2c2c3c(cccc13)[S+](c1ccccc1)C2 (configuration not stated)
0.0631 µM (active)
COC(=O)[C@@]1(Cc2ccc(OC)cc2)[C@H]2c3cc(C(=O)N(C)C)[nH]c3C[C@H]2CN1C(=O)c1ccccc1
5.01 µM (active)
COc1ccc(CNC(=O)C2CC(c3cccc([N+](=O)[O-])c3)=NO2)cc1 (configuration not stated)
10 µM (active)

AC50 for COC(=O)[C@@]1(Cc2ccc(OC)cc2)[C@@H]2[C@@H](CC(=O)[C@H]2CC(=O)C(=O)N(C)C)CN1C(=O)c1ccccc1 is inactive

AC50 for N#Cc1ccc(-c2ccccc2)nc1SCC(=O)c1cccc(Cl)c1 is 2.24 µM (active)

AC50 for CN1CCC2(CC1)CCN(C(=O)c1ccncc1)CC2 is inactive

AC50 for COc1ccc(CNc2cc(-c3ccccc3CN(C)C)ncn2)c(OC)c1 is inactive

AC50 for COc1ccc(CNC(=O)C2CC(c3ccc(OC)cc3)=NO2)cc1 (configuration not stated) is inactive

AC50 for Cc1ccccc1-c1nccc(NCc2cccnc2)n1 is 5.01 µM (active)

AC50 for COc1ccc(CNc2cc(-c3ccccc3OC)ncn2)c(OC)c1 is 2 µM (active)

AC50 for O=C(NCc1ccc2c(c1)OCO2)C1CC(c2cccc(Br)c2)=NO1 (configuration not stated) is 11.2 µM (active)

AC50 for Cc1oc(-c2ccccc2F)nc1CS(=O)(=O)CC(=O)NCCCN(C)C1CCCCC1 is inactive

AC50 for CCOC(=O)N1CCN(C(=O)CSCc2nc(-c3ccccc3F)oc2C)CC1 is 31.6 µM (active)

AC50 for CC(=O)OCC(=O)[C@@]1(OC(C)=O)[C@H](C)C[C@H]2[C@@H]3C[C@H](F)C4=CC(=O)C=C[C@@]4(C)[C@]3(F)[C@H](O)C[C@@]21C is inactive

AC50 for N#Cc1cccc(NC(=O)N2CC3(CCN(C(=O)c4cnccn4)CC3)C2)c1 is inactive

----------
biological target: Cytochrome P450 2C19 (Homo sapiens); assay: Cytochrome panel assay with activity outcomes; conditions: recombinant CYP, pro-luciferin dealkylation, luminescence, p450-cyp2c19; series mostly up to 57.1 µM
In all, about 16,000 compounds went through this assay and about 5,800 (36%) were called active. Another 23% or so got no clear call; they are omitted. The list shows a part of the results.
Observable: AC50

CCCCCCCCCCCCCCCCCCNC(=O)OC[C@@H](COP(=O)([O-])OCC[n+]1ccsc1)OC
inactive
O=[N+]([O-])c1ccc(Nc2nc(N/N=C\c3ccc4c(c3)OCO4)nc(N3CCCCC3)n2)cc1
2.24 µM (active)
CCc1nnc(SCc2ccc(OC(C)C)cc2)n1N
10 µM (active)
CSc1ccc(NC(=O)NCCN2CCc3ccccc3C2)cc1
15.8 µM (active)
COc1ccccc1NC(=O)C(C/C=C(\C)Cl)C(C)=O (stereo not drawn)
3.55 µM (active)

AC50 for Cn1cccc1C(=O)N1CCC2(CCN(C(=O)Nc3cccc(F)c3)CC2)CC1 is inactive

AC50 for COc1ccc(-n2nc3cc(C)c(NC(=S)NC(=O)c4ccccc4C)cc3n2)cc1 is inactive

AC50 for COCCn1c(=O)c(-c2ccc(Cl)cc2)nc2cnc(N3CCOCC3)nc21 is inactive

AC50 for CSc1nc2ccccc2cc1/C=C(\C#N)c1ccc(Cl)cc1Cl is 22.4 µM (active)

AC50 for CCn1c(-c2ccccc2Cl)nn(CC(=O)Nc2cc(Cl)ccc2Cl)c1=S is 1.78 µM (active)

AC50 for N[C@H](CCCP(=O)(O)O)C(=O)O is inactive

AC50 for CNC(=S)N1CCN(c2cccc(OC)c2)CC1 is 7.08 µM (active)

AC50 for O=C(Oc1ccccc1)N1CCC2(CC1)CCN(c1cccc(-c3ccccc3)c1)CC2 is inactive

AC50 for CCn1c(-c2ccccc2Cl)nn(CC(=O)Nc2ccccc2OC)c1=S is 0.891 µM (active)

AC50 for CCCCCCCCCCCCCCCCCC(=O)NC[C@@H](COP(=O)([O-])OCC[N+](C)(C)C)OCC is 25.1 µM (active)

AC50 for O=C1NC(=O)C(c2ccccc2)(c2ccccc2)N1 is inactive

AC50 for Cc1c(CCO)c(=O)n(-c2ccccc2)n1S(=O)(=O)c1c(Cl)cc(Cl)cc1Cl is 2.82 µM (active)

AC50 for CS(=O)(=O)N(CC(=O)Nc1c(F)cccc1F)c1ccc(C23CC4CC(CC(C4)C2)C3)cc1 is 11.2 µM (active)

AC50 for CN(C)C(=O)CN(c1ccc2c(c1)OCO2)S(C)(=O)=O is inactive

AC50 for COc1ccc(N2CCN(S(=O)(=O)c3ccc4c(c3)CCCC4)CC2)c([N+](=O)[O-])c1 is 2 µM (active)

AC50 for CCn1c(-c2ccccc2Cl)nn(CC(=O)Nc2ccc(OC)cc2)c1=S is 3.55 µM (active)

----------
target: Cytochrome P450 2C19 (Homo sapiens) (UniProt P33261); assay: Cytochrome panel assay with activity outcomes; conditions: recombinant CYP, pro-luciferin dealkylation, luminescence, p450-cyp2c19; series mostly up to 57.1 µM
The whole screen tested about 16,000 compounds, of which about 5,800 (36%) were called active. Not shown: some 23% with an inconclusive outcome. The call rests on the fitted dose curve; in most records, active means well fitted curve in the direction sought with a large enough effect; inconclusive means small, poorly fitted or top-dose-only effect, or effect the other way; inactive means no such curve, though single readings can be large or run the other way. This is one part of the list.
Select the correct class. Options are Y (active), N (inactive) and nothing else.

Would you please look over these solved cases?
Cc1ccc(C(=O)CNc2nc3c(c(=O)[nH]c(=O)n3C)n2Cc2ccccc2)cc1
Y
CCCC1(C(=O)OC)C=C2C(=C(c3ccccc3)C(=O)C2C)CN1 (centres undefined)
Y
Cn1c(=O)[nH]c(=O)c2c1nc(NCCCO)n2CCCc1ccccc1
N
O=C(NCCCN1CCN(Cc2ccccc2)CC1)C1CCN(S(=O)(=O)N2CCCC2)CC1
N
CCS(=O)(=O)N1CCC(C(=O)NCc2ccccc2OC)CC1
Y

Query: Check the results log: what was the call for CSc1nc(N)c2ncn([C@H]3O[C@H](COP(=O)(O)OP(=O)(O)O)[C@@H](O)[C@@H]3O)c2n1 ?
Reply: N

Query: Check the results log: what was the call for Cc1c(N2CCCC2)cc2c(c1NC(=O)c1ccccc1Cl)C(C)(C)CC2(C)C ?
Reply: Y

Query: Check the results log: what was the call for NOCC(=O)O ?
Reply: N

Query: Check the results log: what was the call for O=C(c1ccco1)N1CCC2(CC1)CN(c1ccccn1)C2 ?
Reply: N

Query: Check the results log: what was the call for Cn1c(=O)[nH]c(=O)c2c1nc(CN1CCOCC1)n2Cc1ccccc1 ?
Reply: N

Query: Check the results log: what was the call for O=C1CSC(c2ccccn2)N1c1ccc(Cl)c(Cl)c1 (centres undefined) ?
Reply: Y

Query: Check the results log: what was the call for CC(C)c1ccc(CNc2cc(N3CCCC3)ccc2[N+](=O)[O-])cc1 ?
Reply: Y

Query: Check the results log: what was the call for CCS(=O)(=O)N1CCC(C(=O)NCc2ccco2)CC1 ?
Reply: N

Query: Check the results log: what was the call for O=C(c1ccc(COc2ccc(F)cc2)o1)n1cccn1 ?
Reply: Y

----------
target: Cytochrome P450 2C19 (Homo sapiens) (UniProt P33261); experiment: Cytochrome panel assay with activity outcomes; settings: recombinant CYP, pro-luciferin dealkylation, luminescence, p450-cyp2c19; series mostly up to 57.1 µM
Screen size: about 16,000 compounds; about 5,800 (36%) were called active. Not shown: some 23% with an inconclusive outcome. Calls come from the whole dose curve; as a rule, active = well fitted curve in the direction sought with a large enough effect; inconclusive = small, poorly fitted or top-dose-only effect, or effect the other way; inactive = no such curve, though single readings can be large or run the other way. This is one part of the list.
Select the correct class. Options are active, inactive and nothing else.

Would you please look over these solved cases?
N[C@H](Cc1ccc(Cl)cc1)C(=O)O
inactive
O=C(c1cc(C(F)(F)F)cc(C(F)(F)F)c1)N1CCC2(CC1)CCN(c1ncccn1)CC2
inactive
CCNc1ncc2nc(-c3cn(C)c4ccccc34)c(=O)n(C)c2n1
inactive
CCn1c(SCC(=O)c2ccc3ccccc3c2)nnc1-c1cccs1
active
O=C(O)[C@H]1C[C@@H](CP(=O)(O)O)CCN1
active

Query: Check the results log: what was the call for CCN1CCC[C@@H]1CNC(=O)c1cc(S(N)(=O)=O)ccc1OC ?
Reply: inactive

Origin of the recorded values: PubChem BioAssay AID1851
